tested on: Staphylococcus aureus; test: Antimicrobial activity against 10^4 CFU/ml Staphylococcus aureus ATCC 25923 after 22 hrs by serial microdilution method; assay type: functional; settings: ATCC 25923, 22 h
READOUT LABEL: MBC

# get_value(readout= MBC, system= Staphylococcus aureus) for `O=C(O)c1cn(C2CC2)c2cc(N3CCNCC3)c(F)cc2c1=O`
< 0.8 µg/mL

Do the same for `CCCCCCCCC[N+]12CC[N+](CCCCC[N+]34CC[N+](CCCCCCCCC)(CC3)CC4)(CC1)CC2.[Br-].[Br-].[Br-].[Br-]` please
25 µg/mL

Do the same for `CCCCCCCCCCCC[N+]12CC[N+](CCCCC[N+]34CC[N+](CCCCCCCCCCCC)(CC3)CC4)(CC1)CC2.[Br-].[Br-].[Cl-].[Cl-]` please
6.3 µg/mL

Do the same for `CCCCCCCC[N+]12CC[N+](CCCCC[N+]34CC[N+](CCCCCCCC)(CC3)CC4)(CC1)CC2.[Br-].[Br-].[Br-].[Br-]` please
100 µg/mL

Do the same for `CCCCCCCCCCCCCC[N+]12CC[N+](CCCCC[N+]34CC[N+](CCCCCCCCCCCCCC)(CC3)CC4)(CC1)CC2.[Br-].[Br-].[Br-].[Br-]` please
100 µg/mL

Do the same for `CCCCCCCCCC[N+]12CC[N+](CCCCC[N+]34CC[N+](CCCCCCCCCC)(CC3)CC4)(CC1)CC2.[Br-].[Br-].[Br-].[Br-]` please
12.5 µg/mL

* * *

tested on: Bacillus subtilis; assay: Antimicrobial activity against Bacillus subtilis ATCC 6633 at 1 ug/ml after 24 hrs by agar diffusion method; assay type: functional; conditions: ATCC 6633, 24 h, read-out: DIZ
Record form. Attribute: zone of inhibition at 1 µg/mL. Fill in for each entry.
Respond numerically; units are mm and should not be typed.

Looking for the measured zone of inhibition at 1 µg/mL of O=C(O)c1cn(C2CC2)c2cc(N3CCNCC3)c(F)cc2c1=O [CIPROFLOXACIN] , can you help?
30

Do the same for `CCCCCCCCCCCCCC[N+]12CC[N+](CCCCC[N+]34CC[N+](CCCCCCCCCCCCCC)(CC3)CC4)(CC1)CC2.[Br-].[Br-].[Br-].[Br-]` please
7

Do the same for `CCCCCCCCCCCC[N+]12CC[N+](CCCCC[N+]34CC[N+](CCCCCCCCCCCC)(CC3)CC4)(CC1)CC2.[Br-].[Br-].[Cl-].[Cl-]` please
10

Do the same for `CCCCCCC[N+]12CC[N+](CCCCC[N+]34CC[N+](CCCCCCC)(CC3)CC4)(CC1)CC2` please
5

* * *

tested on: Staphylococcus aureus; assay: Antimicrobial activity against 10^7 CFU/ml Staphylococcus aureus ATCC 25923 after 22 hrs by serial microdilution method; type: functional; conditions: ATCC 25923, 22 h
READOUT LABEL: MBC

# get_value(readout= MBC, system= Staphylococcus aureus) for `CCCCCCCCC[N+]12CC[N+](CCCCC[N+]34CC[N+](CCCCCCCCC)(CC3)CC4)(CC1)CC2.[Br-].[Br-].[Br-].[Br-]`
50 mg/L

Do the same for `CCCCCCCC[N+]12CC[N+](CCCCC[N+]34CC[N+](CCCCCCCC)(CC3)CC4)(CC1)CC2.[Br-].[Br-].[Br-].[Br-]` please
> 100 mg/L

Do the same for `CCCCCCCCCC[N+]12CC[N+](CCCCC[N+]34CC[N+](CCCCCCCCCC)(CC3)CC4)(CC1)CC2.[Br-].[Br-].[Br-].[Br-]` please
6.3 mg/L

Do the same for O=C(O)c1cn(C2CC2)c2cc(N3CCNCC3)c(F)cc2c1=O [CIPROFLOXACIN] please
< 0.8 mg/L

Do the same for `CCCCCCCCCCCC[N+]12CC[N+](CCCCC[N+]34CC[N+](CCCCCCCCCCCC)(CC3)CC4)(CC1)CC2.[Br-].[Br-].[Cl-].[Cl-]` please
12.5 mg/L

Do the same for `CCCCCCCCCCCCCC[N+]12CC[N+](CCCCC[N+]34CC[N+](CCCCCCCCCCCCCC)(CC3)CC4)(CC1)CC2.[Br-].[Br-].[Br-].[Br-]` please
> 100 mg/L
